# experimentalProtocol: Clearance in Sprague-Dawley rat blood at 1 mg/kg, iv measured up to 24 hrs by HPLC-MS/MS analysis
# Format: ADME, organism-based
measuredEndpoint: clearance

Please fill in: clearance reported for Cn1ncc2c(-c3ccc(F)cc3)cc(NNC(=O)Nc3cc(Cl)nc(Cl)c3)nc21 = 1.5 mL/min/kg

----------
# experimentalProtocol: Initial drug concentration in Sprague-Dawley rat blood at 1 mg/kg, iv measured up to 24 hrs by HPLC-MS/MS analysis
# Type: ADME, organism-based
measuredEndpoint: C0 at 24 h (ng/mL)
Only the number, expressed in ng/mL, is required.

Please fill in: C0 at 24 h reported for Cn1ncc2c(-c3ccc(F)cc3)cc(NNC(=O)Nc3cc(Cl)nc(Cl)c3)nc21 = 4970

----------
# experimentalProtocol: MRT (0 to t) in Sprague-Dawley rat blood at 1 mg/kg, iv measured up to 24 hrs by HPLC-MS/MS analysis
# Format: ADME, organism-based
measuredEndpoint: MRT last at 24 h (h)
Only the number, expressed in h, is required.

Please fill in: MRT last at 24 h reported for Cn1ncc2c(-c3ccc(F)cc3)cc(NNC(=O)Nc3cc(Cl)nc(Cl)c3)nc21 = 7.9

----------
# assayedSystem: Sphingosine 1-phosphate receptor 2 (Homo sapiens)
# Sequence (O95136 whole entry): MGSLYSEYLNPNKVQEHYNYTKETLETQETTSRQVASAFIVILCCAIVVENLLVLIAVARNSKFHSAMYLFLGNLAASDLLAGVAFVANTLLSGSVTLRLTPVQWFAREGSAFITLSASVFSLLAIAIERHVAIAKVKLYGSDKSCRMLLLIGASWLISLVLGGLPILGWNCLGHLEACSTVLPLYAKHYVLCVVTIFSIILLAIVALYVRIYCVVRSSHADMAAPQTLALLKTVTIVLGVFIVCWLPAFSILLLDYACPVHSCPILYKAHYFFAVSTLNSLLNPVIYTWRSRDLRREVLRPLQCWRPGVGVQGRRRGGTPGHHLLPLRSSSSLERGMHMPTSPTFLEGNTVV
measuredEndpoint: Kd
Write the figure, then the unit, nothing else.

# Cc1c(Cc2ccccc2)c(NNC(=O)Nc2cc(Cl)nc(Cl)c2)nc2c1cnn2C with Sphingosine 1-phosphate receptor 2 (Homo sapiens): Kd is 870 nM

# CCCCOc1cc(NC(=O)NNc2cc(-c3ccc(F)cc3)c3cnn(C)c3n2)cc(Cl)n1 with Sphingosine 1-phosphate receptor 2 (Homo sapiens): Kd is 2650 nM

# CCCCOc1cc(NC(=O)NNc2cc(-c3ccc(OC)cc3)c3cnn(C)c3n2)cc(Cl)n1 with Sphingosine 1-phosphate receptor 2 (Homo sapiens): Kd is 4150 nM

More entries:
# CCCc1cc(NNC(=O)Nc2cc(Cl)nc(Cl)c2)nc2c1c(C(F)(F)F)nn2C with Sphingosine 1-phosphate receptor 2 (Homo sapiens): Kd is 890 nM

# Cc1nn(C)c2nc(NNC(=O)Nc3cc(Cl)nc(Cl)c3)cc(C3CCCCC3)c12 with Sphingosine 1-phosphate receptor 2 (Homo sapiens): Kd is 2010 nM

----------
# experimentalProtocol: MRT (0 to t) in Sprague-Dawley rat plasma at 1 mg/kg, iv measured up to 24 hrs by HPLC-MS/MS analysis
# Type: ADME, organism-based
measuredEndpoint: MRT last at 24 h (h)
Only the number, expressed in h, is required.

Please fill in: MRT last at 24 h reported for Cn1ncc2c(-c3ccc(F)cc3)cc(NNC(=O)Nc3cc(Cl)nc(Cl)c3)nc21 = 7.6

Values compiled from ChEMBL document CHEMBL5120746.
